Molecular target: Coagulation factor X (Homo sapiens, UniProt P00742)
Sequence (P00742 41-179 limits assumed): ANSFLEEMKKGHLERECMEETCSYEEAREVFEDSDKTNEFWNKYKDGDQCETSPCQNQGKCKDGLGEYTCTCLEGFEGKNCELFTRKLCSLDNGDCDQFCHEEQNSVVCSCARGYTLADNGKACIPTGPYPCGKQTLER
Sequence (P00742 235-488 limits assumed): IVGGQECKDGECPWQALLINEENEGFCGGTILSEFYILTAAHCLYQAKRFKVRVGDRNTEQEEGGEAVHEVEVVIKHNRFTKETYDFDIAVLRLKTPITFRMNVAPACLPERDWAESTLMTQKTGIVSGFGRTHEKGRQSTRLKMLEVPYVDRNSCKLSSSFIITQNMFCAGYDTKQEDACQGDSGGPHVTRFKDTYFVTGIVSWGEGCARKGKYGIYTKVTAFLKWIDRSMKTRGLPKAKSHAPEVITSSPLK
Assay: Inhibitory activity against coagulation factor X was determined
pIC50: −log10 of the molar value.
Kindly state pIC50 for each of the entries shown.

Recorded results for 2 molecules are shown here.
N=C(N)NCCCCCNC(=O)Cc1c(F)ccc(NS(=O)(=O)Cc2ccccc2)c1F
< 4.52
CC(C)Nc1ccc(-c2cccc(N)c2)c(CC(=O)NCc2ccc(C(=N)N)cc2)c1F
< 4.52

Field: next molecule
Give the measured pIC50 for `N=C(N)c1ccc(CNC(=O)Cc2c(F)ccc(NS(=O)(=O)Cc3ccccc3)c2F)cc1`
< 4.52

====

Biological target: UniProt P08709
Sequence (P08709 61-212 limits assumed): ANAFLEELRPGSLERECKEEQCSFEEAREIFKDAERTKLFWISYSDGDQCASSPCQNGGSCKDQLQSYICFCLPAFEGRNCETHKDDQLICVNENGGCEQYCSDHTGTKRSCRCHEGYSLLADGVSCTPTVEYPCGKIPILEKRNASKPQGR
Sequence (P08709 213-466 limits assumed): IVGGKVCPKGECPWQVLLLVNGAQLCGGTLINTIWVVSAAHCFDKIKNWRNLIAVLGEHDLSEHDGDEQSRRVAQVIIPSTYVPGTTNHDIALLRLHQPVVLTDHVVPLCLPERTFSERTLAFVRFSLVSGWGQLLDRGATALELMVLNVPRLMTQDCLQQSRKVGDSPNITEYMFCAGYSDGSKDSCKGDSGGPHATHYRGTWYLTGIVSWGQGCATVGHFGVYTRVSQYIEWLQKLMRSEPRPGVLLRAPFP
Experiment: Inhibitory activity against coagulation factor VII was determined
quantity_kind: IC50

Recorded results for 2 compounds are shown here.
O=C(Cc1c(F)ccc(NS(=O)(=O)Cc2ccccc2)c1F)NCC1CCNCC1
> 30 µM
N=C(N)c1ccc(CNC(=O)Cc2c(F)ccc(NS(=O)(=O)Cc3ccccc3)c2F)cc1
> 30 µM

Okay, here is my list. What is IC50 for each of these?
1. N=C(N)c1cccc(CNC(=O)Cc2c(F)ccc(NS(=O)(=O)Cc3ccccc3)c2F)c1
2. CC(C)Nc1ccc(-c2ccccc2)c(CC(=O)NCc2ccc(C(=N)N)cc2)c1O
3. O=C(NCc1ccncc1)c1cc(NS(=O)(=O)Cc2ccccc2)ccc1Sc1ccccc1

1. > 30 µM
2. 2.5 µM
3. > 30 µM
